Test system: MT4
Assay: Cytotoxicity based on the reduction of the viability of mock-infected MT-4 cells using the MTT method
Assay type: functional, Homo sapiens
For each record, write down the corresponding CC50.
Numbers only, in µM.

>>> observed_value("C[C@H]1/C=C\\[C@@H](CCCCN)NC(=O)[C@H](CCCCN)NC(=O)[C@H](CCCN=C(N)N)NC(=O)[C@H](Cc2ccc(O)cc2)NC(=O)[C@@H](NC(=O)[C@H](CSC23C[C@H]4C[C@@H](C2)C[C@@H](C3)C4)NC(=O)[C@H](CCCN=C(N)N)NC(=O)[C@@H](N)CCCN=C(N)N)CSSC[C@@H](C(=O)N[C@@H](CCCN=C(N)N)C(N)=O)NC(=O)[C@H](CCCNC(N)=O)NC(=O)[C@H](CCCN=C(N)N)NC(=O)[C@H](Cc2ccc(O)cc2)NC1=O")
57
>>> observed_value("C[C@H]1/C=C\\[C@@H](CCCCN)NC(=O)[C@H](CCCCN)NC(=O)[C@H](CCCN=C(N)N)NC(=O)[C@H](Cc2ccc(O)cc2)NC(=O)[C@@H](NC(=O)[C@H](CSCc2ccccc2)NC(=O)[C@H](CCCN=C(N)N)NC(=O)[C@@H](N)CCCN=C(N)N)CSSC[C@@H](C(=O)N[C@@H](CCCN=C(N)N)C(N)=O)NC(=O)[C@H](CCCNC(N)=O)NC(=O)[C@H](CCCN=C(N)N)NC(=O)[C@H](Cc2ccc(O)cc2)NC1=O")
59

Next up:
Task item: // query CC50 value for entry C[C@H]1/C=C\[C@@H](CCCCN)NC(=O)[C@H](CCCCN)NC(=O)[C@H](CCCN=C(N)N)NC(=O)[C@H](Cc2ccc(O)cc2)NC(=O)[C@@H](NC(=O)[C@H](Cc2c[nH]c3ccccc23)NC(=O)[C@H](CCCN=C(N)N)NC(=O)[C@@H](N)CCCN=C(N)N)CSSC[C@@H](C(=O)N[C@@H](CCCN=C(N)N)C(N)=O)NC(=O)[C@H](CCCNC(N)=O)NC(=O)[C@H](CCCN=C(N)N)NC(=O)[C@H](Cc2ccc(O)cc2)NC1=O
Reply: 58

* * *

Tested on: MT4
Test: Cytotoxicity based on the reduction of the viability of mock-infected MT-4 cells using the MTT method
Assay type: functional, Homo sapiens
Readout: CC50 (µM)
Give bare numbers, in µM.

Task item: // query CC50 value for entry C[C@H]1/C=C\[C@@H](CCCCN)NC(=O)[C@H](CCCCN)NC(=O)[C@H](CCCN=C(N)N)NC(=O)[C@H](Cc2ccc(O)cc2)NC(=O)[C@@H](NC(=O)[C@H](Cc2ccc3ccccc3c2)NC(=O)[C@H](CCCN=C(N)N)NC(=O)[C@@H](N)CCCN=C(N)N)CSSC[C@@H](C(=O)N[C@@H](CCCN=C(N)N)C(N)=O)NC(=O)[C@H](CCCNC(N)=O)NC(=O)[C@H](CCCN=C(N)N)NC(=O)[C@H](Cc2ccc(O)cc2)NC1=O
Reply: 58

* * *

Biological target: C-X-C chemokine receptor type 4 (Homo sapiens)
Sequence (P61073 whole entry): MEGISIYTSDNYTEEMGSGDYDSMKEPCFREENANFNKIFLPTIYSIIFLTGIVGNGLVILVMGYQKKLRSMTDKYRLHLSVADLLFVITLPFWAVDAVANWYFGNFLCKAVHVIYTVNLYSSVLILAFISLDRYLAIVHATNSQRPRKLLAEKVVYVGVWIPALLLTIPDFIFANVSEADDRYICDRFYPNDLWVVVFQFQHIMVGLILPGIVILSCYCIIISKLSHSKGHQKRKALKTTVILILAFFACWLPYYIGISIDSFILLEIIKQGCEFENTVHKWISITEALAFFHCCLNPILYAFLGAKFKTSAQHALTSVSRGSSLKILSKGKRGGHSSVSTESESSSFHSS
Assay: Inhibitory activity based on the inhibition of [Ca2+] mobilization induced by human SDF-1alpha stimulation through CXCR4
For each record, write down the corresponding pIC50.
Numbers only, as −log10 of the molar value.

>>> observed_value("C[C@H]1/C=C\\[C@@H](CCCCN)NC(=O)[C@H](CCCCN)NC(=O)[C@H](CCCN=C(N)N)NC(=O)[C@H](Cc2ccc(O)cc2)NC(=O)[C@@H](NC(=O)[C@H](CSCc2ccccc2)NC(=O)[C@H](CCCN=C(N)N)NC(=O)[C@@H](N)CCCN=C(N)N)CSSC[C@@H](C(=O)N[C@@H](CCCN=C(N)N)C(N)=O)NC(=O)[C@H](CCCNC(N)=O)NC(=O)[C@H](CCCN=C(N)N)NC(=O)[C@H](Cc2ccc(O)cc2)NC1=O")
7.44
>>> observed_value("C[C@H]1/C=C\\[C@@H](CCCCN)NC(=O)[C@H](CCCCN)NC(=O)[C@H](CCCNC(=N)N)NC(=O)[C@H](Cc2ccc(O)cc2)NC(=O)[C@@H](NC(=O)[C@H](Cc2ccc3ccccc3c2)NC(=O)[C@H](CCCNC(=N)N)NC(=O)[C@@H](N)CCCN=C(N)N)CSSC[C@@H](C(=O)N[C@@H](CCCNC(=N)N)C(=O)O)NC(=O)[C@H](CCCNC(N)=O)NC(=O)[C@H](CCCNC(=N)N)NC(=O)[C@H](Cc2ccc(O)cc2)NC1=O")
8.14
>>> observed_value("C[C@H]1/C=C\\[C@@H](CCCCN)NC(=O)[C@H](CCCCN)NC(=O)[C@H](CCCN=C(N)N)NC(=O)[C@H](Cc2ccc(O)cc2)NC(=O)[C@@H](NC(=O)[C@H](CSC23C[C@H]4C[C@@H](C2)C[C@@H](C3)C4)NC(=O)[C@H](CCCN=C(N)N)NC(=O)[C@@H](N)CCCN=C(N)N)CSSC[C@@H](C(=O)N[C@@H](CCCN=C(N)N)C(N)=O)NC(=O)[C@H](CCCNC(N)=O)NC(=O)[C@H](CCCN=C(N)N)NC(=O)[C@H](Cc2ccc(O)cc2)NC1=O")
6.77

Next up:
Task item: Notebook entry, C-X-C chemokine receptor type 4 (Homo sapiens) assay: pIC50 of C[C@H]1/C=C\[C@@H](CCCCN)NC(=O)[C@H](CCCCN)NC(=O)[C@H](CCCN=C(N)N)NC(=O)[C@H](Cc2ccc(O)cc2)NC(=O)[C@@H](NC(=O)[C@H](Cc2ccc3ccccc3c2)NC(=O)[C@H](CCCN=C(N)N)NC(=O)[C@@H](N)CCCN=C(N)N)CSSC[C@@H](C(=O)N[C@@H](CCCN=C(N)N)C(N)=O)NC(=O)[C@H](CCCNC(N)=O)NC(=O)[C@H](CCCN=C(N)N)NC(=O)[C@H](Cc2ccc(O)cc2)NC1=O = ?
Reply: 8.00
